# System Under Test: T1, TNFR1 (Homo sapiens, UniProt P19438)
# T1 chain: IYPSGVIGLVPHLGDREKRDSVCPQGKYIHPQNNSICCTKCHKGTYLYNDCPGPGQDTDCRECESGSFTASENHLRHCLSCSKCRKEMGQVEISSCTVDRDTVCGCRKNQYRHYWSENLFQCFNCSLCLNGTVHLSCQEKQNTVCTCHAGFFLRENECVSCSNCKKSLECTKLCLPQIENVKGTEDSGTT
# Test Protocol: yeast display SC50
Measured Property: apparent Kd (screen) (nM)
Quick reminder: number only, in nM, skip the unit.

Y50T (designed binder) SMEEEVEKAAKEYEKKKKEAIEKHLEKLKAKDKEAAERFLKELEEAAKETAKDEAKTMSEEEAKRRAKKYKEKVLLSELSEEEQKEIKEAEEKLVRTILKYVEEAAK | 1.16

Here is the next item to consider.
Which apparent Kd (screen) value is on record for F39D (designed binder) SMEEEVEKAAKEYEKKKKEAIEKHLEKLKAKDKEAAERDLKELEEAAKEYAKDEAKTMSEEEAKRRAKKYKEKVLLSELSEEEQKEIKEAEEKLVRTILKYVEEAAK ? 7.07

Hey, just so you know, these numbers are from paper PMC12416549.
